I'd be grateful if you could share measured apparent KD of K4 kissing-loop reporter for these entries.
tested on: K4 kissing-loop RNA reporter; experiment: apparent KD of K4 kissing-loop reporter; higher = weaker reporter binding; conditions: Eterna round: R107; input ligand: none
Respond numerically; units are µM and should not be typed.

Request: What value of apparent KD of K4 kissing-loop reporter has been recorded for this entry: CUGGUGCUGAUGCGGUGGCCGGUGGUCGUGCGAGGACCGGUACGGCCGCCACUCGCAUGAGUGAUGUUCAUGUGUCGUCGUCGUC [whbob_EX_Tryp_A_t1]
Response: 0.181

Request: What value of apparent KD of K4 kissing-loop reporter has been recorded for this entry: `GCCGUAGAUGGAAGGAGCGUGGUUAAUGUAAGUGAUGUUUACGAGGUUAACAAUUGACCGCCACAGGUAGGUCGCCAUCUACGGC`
Response: 0.0741

Request: What value of apparent KD of K4 kissing-loop reporter has been recorded for this entry: AUGCGCGCGGCGGCCGCCACUCGCAUGAGAGUGAUGUUCUCGCCGGGCCCGGAAGGGCCCGGUGUGAGGACCGGGCCGGGCUGCG [#2 Same State - Tryptophan B Attempt #17 (HarryS)]
Response: 0.175

Request: What value of apparent KD of K4 kissing-loop reporter has been recorded for this entry: UCUCUUCUCAGUGAUGUUGAGUAAUCGGAAGGAGCGCGUGAAAACGCAGGUAGGUCGCCGAUUUGUGAAGUAUCUUCGCAAGAGA [Arginine A K4 26]
Response: 0.412

Request: What value of apparent KD of K4 kissing-loop reporter has been recorded for this entry: UAGUGAAUAGAAGGAUAUUGAUAUGAAAGAUGCAGUGAUGUUGCCCGUAGCAGUCAGUAAUACGUGCAAGAAGGUCUGUGCGCGA [theeternabot_exclusion_KL_FMN_B_3]
Response: 0.0692

Request: What value of apparent KD of K4 kissing-loop reporter has been recorded for this entry: `UGAUAGGACAGAAGGAGCGGCAGUGAUGUUGCCAAAAGGAUAAGGUGUCAAAAGACACCCUGCCAGGUAGGUCGCUGUCCUAUCU`
Response: 0.259

Request: What value of apparent KD of K4 kissing-loop reporter has been recorded for this entry: GCGGGCGGCUGAAGGAGCGGGCGGGCCCGAGUGAUGUUCGGGUGGGCCGUGAGGCCCGGAGCCCAGGUAGGUCGCGGUUCCGUCC [#2 Same State - Arginine B Attempt #19 (HarryS)]
Response: 0.126

Request: What value of apparent KD of K4 kissing-loop reporter has been recorded for this entry: UGAUACCAGACGGCCGCCACUGGUGCAGUCAAAGACUGCUAAAACCAAAUCGUGGAGUGAUGUUCCAGGACCGGGUCUGGUAUCU [TrypBX 20 #SwitchBubble #Palindromic #StaticStem]
Response: 0.452

Request: What value of apparent KD of K4 kissing-loop reporter has been recorded for this entry: GGUCCGGGCUCGGCCGCCACUCCCUCGUACCGCAAGGUAUGAUACCGAGUGAUGUUCGGUUGGAGGAGGACCGGGAGCCCGGACC [#2 Exclusion - Tryptophan B Attempt #9 (HarryS)]
Response: 0.132

Request: What value of apparent KD of K4 kissing-loop reporter has been recorded for this entry: `GGUAGCAUGGCGGCCGCCACUAAUACUUCGUAGCCUGUAGCCGGCUUCGUAGAGUGAUGUUCUAUUAGGACCGGGCCAUGCUACC`
Response: 0.45

Request: What value of apparent KD of K4 kissing-loop reporter has been recorded for this entry: UGUCAUUGGUCGGCCGCCACUAGGACCGGGUUUUACCUAGUGAUGUUAGUAUAAACGGCCGCCACUAGGACCGGGACCGAUGACU [KL-SSTryp-B24 #DoubleAptamer]
Response: 0.547

Request: What value of apparent KD of K4 kissing-loop reporter has been recorded for this entry: GUCUGAUGCGUUGAUACCAGUCCUUCAGUGAUGUUGCAAGCGCGGCCUAUCAAGCAAUCCGACCCUUGGCAGCAAUAGGUCCGAA [theeternabot_exclusion_KL_Theo_B_9]
Response: 0.85

Request: What value of apparent KD of K4 kissing-loop reporter has been recorded for this entry: UUUAUUAAGACGGCCGCCACUGAUUCAGAGUGAUGUUCUGAUAUUUUUUUAUAUAAUAAUAACAGCAGGACCGGGUCAAUUAUUA [JR_SSTryptoB_Sub013]
Response: 0.233

Request: What value of apparent KD of K4 kissing-loop reporter has been recorded for this entry: AAACAUUGGUCUGAUACCAGCUUGAUCGGUAAACGAUCUACUGGAGUGAUGUUCCUAAAUAGCCCUUGGCAGCAGACCGAUGAAA [MAT - Same State Theophlline B - Mod of Eli - D6]
Response: 0.177

====

I'd be grateful if you could share measured apparent KD of K4 kissing-loop reporter for these entries.
tested on: K4 kissing-loop RNA reporter; test: apparent KD of K4 kissing-loop reporter; higher = weaker reporter binding; conditions: Eterna round: R107; input ligand: none
Answer format reminder: number followed by unit.

Request: What value of apparent KD of K4 kissing-loop reporter has been recorded for this entry: `GCCGUAGAUUGAAGGAGCGAGUAGGCUCACUUGCGAAGUGAAUAGCAGAGUGAUGUUCUGUCUCAGGUAGGUCGCAAUCUACGGC`
Response: 388 nM

Request: What value of apparent KD of K4 kissing-loop reporter has been recorded for this entry: AAUAAAAUCACGGCCGCCACUGGUACUAGUAUUAGCAGUGAUGUUGCUAUGUAUAAUUUAUUAAAUAGGACCGGGUGAAUAUUUA [#27 K4 Tryptophan B Exclusion]
Response: 238 nM

Request: What value of apparent KD of K4 kissing-loop reporter has been recorded for this entry: GGGAAGAAGGCGGCCGCCACUGCAGAAGAGACAGAGAGGGUAGAAGAGGAGUGAUGUUCCAAGAACAGGACCGGGCCAAGAAGGG [whbob_SS_Tryp_B_t30]
Response: 226 nM

Request: What value of apparent KD of K4 kissing-loop reporter has been recorded for this entry: `AAGCAGUCACUCAAAGCCAUCGAAGAUGGACGAGGACCGGUACGGCCGCCACUCGGAGUGAUGUUCCGAAGACUGCAAAAUAAAA`
Response: 304 nM

Request: What value of apparent KD of K4 kissing-loop reporter has been recorded for this entry: AACAGCAAUGCGGCCGCCACUUCGAGGUCAGUGAUGUUGACGGAAUUAAAUAAAGAUCCCAAGAGGAGGACCGGGCAGUGCUGUU [whbob_SS_Tryp_B_t25]
Response: 499 nM

Request: What value of apparent KD of K4 kissing-loop reporter has been recorded for this entry: `GGAAGGAAGGGAAGGAGCGCGCAGGCAGUGAUGUUGCCAAACAAAACAAACAAAACAAAAGCGCAGGUAGGUCGCCCGAAGGACG`
Response: 89.7 nM

====

system: K4 kissing-loop RNA reporter; assay: apparent KD of K4 kissing-loop reporter; higher = weaker reporter binding; settings: Eterna round: R107; input ligand: none;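 note: bound reporter read as fluorescence of individual clusters on recovered sequencing chips by microscopy, with normalized cluster intensities fitted with a binding model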
Readout Name: apparent KD of K4 kissing-loop reporter (nM)
Respond numerically; units are nM and should not be typed.

Request: What value of apparent KD of K4 kissing-loop reporter has been recorded for this entry: UGAUACCAGACGGCCGCCACUAGACCAGUCAAAGACUGGAAGUGAUGUUUGAGGAGUGAUGUUCCUAGGACCGGGUCUGGUAUCU [TrypBX 3 #Palindromic #SwitchBubble #StaticStem]
Response: 90.5

Request: What value of apparent KD of K4 kissing-loop reporter has been recorded for this entry: ACGUAUAUCAGAGGAUAUCGUAUUAAUAUUUUAUCUAUCUAUAUAUGCAGUGAUGUUGCAAUAAUUCGAGAAGGCUGAUUUACGA [JR_ExcFMNB_Sub010]
Response: 91.6

Request: What value of apparent KD of K4 kissing-loop reporter has been recorded for this entry: UCGGGCGGCUGAAGGAGCGGGCGGGCCCGAGUGAUGUUCGGGUGGGCCGUGAGGCCCGGAGCCCAGGUAGGUCGCGGUUCCGCCC [#2 Same State - Arginine B Attempt #23 (HarryS)]
Response: 188

Request: What value of apparent KD of K4 kissing-loop reporter has been recorded for this entry: UUGUUUGGUUGAGAGGUUGGGCGAGAUGAUACCAGUAUAGUAUUGUACCCUUGGCAGCAUAGGAGAGAUAUAGUGAUGUUGUAUG [SSTheophA.W]
Response: 457

Request: What value of apparent KD of K4 kissing-loop reporter has been recorded for this entry: AGAGUUUUAUGAGGAUAUGAGAUAGUUAAUGAGUGAGUUAUAGUGUAGUUUGGUUAGUGAUGUUAUUUAGAAGGCGUGAGUGAUG [zzfzmullin]
Response: 143

Request: What value of apparent KD of K4 kissing-loop reporter has been recorded for this entry: CCAAUCUGUUACGAUACCAGUCAAAGAUAUUUGAUCAAUACCCUCACCGAGUGAUGUUCGGACCCUUGGCAGCGUCUGGGAUAGG [ceevmullin]
Response: 266

Request: What value of apparent KD of K4 kissing-loop reporter has been recorded for this entry: CCGCCGGUCGGAAGGAGCGCACGCCAGAGUGAUGUUCUGGCGCGGGCAUUUUGUGCCCGCGUGCAGGUAGGUCGCCGAUUCUGGC [Quxeorti]
Response: 427

Request: What value of apparent KD of K4 kissing-loop reporter has been recorded for this entry: AUGGCACGACUUGCCCACAAUGUCUAUGCCCGAGGACCGGUACGGCCGCCACUCGGAUGCCGUGUCUUAUUAGUGAUGUUGAUAC [theeternabot_sameState_KL_Trp_A_4]
Response: 411

Request: What value of apparent KD of K4 kissing-loop reporter has been recorded for this entry: CCGGGCGGCCGAAGGAGCGGGCGGACCCGAGUGAUGUUCGGGUGGACCGUGAGGUCCGGUGCCCAGGUAGGUCGCGGUUCCGCCC [#2 Same State - Arginine B Attempt #5 (HarryS)]
Response: 129

Request: What value of apparent KD of K4 kissing-loop reporter has been recorded for this entry: `UGACUGGACUGAAGGAGCGCGCGAGACAAAGUCUCGAACUCGUAGUGAUGUUAGGAAAUAACGCAGGUAGGUCGCAGUCUAGUCU`
Response: 611

Request: What value of apparent KD of K4 kissing-loop reporter has been recorded for this entry: CUCGAGUGAUGUUCGAUUAUGUAUACAGAUACCAGUGAAUUUUAACACCCUUGGCAGCUGGUAGAAUCAUUUUAAUUUUAACUAG [JR_SSTheophyA_Sub021]
Response: 221

Request: What value of apparent KD of K4 kissing-loop reporter has been recorded for this entry: ACACUAUCGUCAUAGACGGUAGUGAAAAGUGAGGAUAUGAGUGAUGUUAGAAGGCACUAAGACUGUAUCGAAUAGAUACAGUCAA [FmnA 4 #K4BetweenAptamer #OpenEnded]
Response: 384

Request: What value of apparent KD of K4 kissing-loop reporter has been recorded for this entry: AGGUCACAACUACAGUGAUGUUGUGGAGAGCAGGAUAUGCAGAAAUGCAGAAGGGCUCGCUCUCUAGUGACCGAUCAAAAGAUCA [Omei KL FMN A SS A v9]
Response: 669

Request: What value of apparent KD of K4 kissing-loop reporter has been recorded for this entry: CGAAGAGAGUGAUGUUCUCUAGGCAAAAGAAAGGAUAUAAUGUUUGUUAGAAGGUUCGGAAAAUGGAACGUCGGCCCGUACAACC [theeternabot_exclusion_KL_FMN_A_18]
Response: 139
